# TEST_METHOD_NOTES: Fecal excretion study in rats after oral NS, SF or CNS (LC–MS/MS)
# Assay type: in vivo
# MEASUREMENT_PARAMETERS: male, Sprague Dawley; rat feces, oral CNS 110 mg/kg, 8 h

{"COMPOUND": "CC(C)=CCC[C@](C)(O[C@@H]1O[C@H](CO)[C@@H](O)[C@H](O)[C@H]1O)[C@H]1CC[C@]2(C)[C@@H]1[C@H](O)C[C@@H]1[C@@]3(C)CC[C@H](O)C(C)(C)[C@@H]3[C@@H](O[C@@H]3O[C@H](CO)[C@@H](O)[C@H](O)[C@H]3O[C@@H]3O[C@@H](C)[C@H](O)[C@@H](O)[C@H]3O)C[C@]12C [ginsenoside Re]", "UNIT_ANNOTATION": "ng/mL", "concentration at 8 h": 267}

###

# TEST_METHOD_NOTES: Fecal excretion study in rats after oral NS, SF or CNS (LC–MS/MS)
# Type: in vivo
# MEASUREMENT_PARAMETERS: rat feces, oral CNS 110 mg/kg, 36 h
MEASURE_NAME: Accumulative excretion percentage

{"COMPOUND": "CC(C)=CCC[C@](C)(O[C@@H]1O[C@H](CO)[C@@H](O)[C@H](O)[C@H]1O)[C@H]1CC[C@]2(C)[C@@H]1[C@H](O)C[C@@H]1[C@@]3(C)CC[C@H](O)C(C)(C)[C@@H]3[C@@H](O[C@@H]3O[C@H](CO)[C@@H](O)[C@H](O)[C@H]3O)C[C@]12C [ginsenoside Rg1]", "MEASURE_NAME": "Accumulative excretion percentage", "REPORTED": "2.802±0.894%"}
{"COMPOUND": "CC(C)=CCC[C@](C)(O[C@@H]1O[C@H](CO)[C@@H](O)[C@H](O)[C@H]1O)[C@H]1CC[C@]2(C)[C@@H]1[C@H](O)C[C@@H]1[C@@]3(C)CC[C@H](O[C@@H]4O[C@H](CO)[C@@H](O)[C@H](O)[C@H]4O[C@@H]4O[C@H](CO)[C@@H](O)[C@H](O)[C@H]4O)C(C)(C)[C@@H]3CC[C@]12C [ginsenoside Rd]", "MEASURE_NAME": "Accumulative excretion percentage", "REPORTED": "2.724±0.715%"}
{"COMPOUND": "CC(C)=CCC[C@](C)(O[C@@H]1O[C@H](CO[C@@H]2O[C@H](CO)[C@@H](O)[C@H](O)[C@H]2O)[C@@H](O)[C@H](O)[C@H]1O)[C@H]1CC[C@]2(C)[C@@H]1[C@H](O)C[C@@H]1[C@@]3(C)CC[C@H](O[C@@H]4O[C@H](CO)[C@@H](O)[C@H](O)[C@H]4O[C@@H]4O[C@H](CO)[C@@H](O)[C@H](O)[C@H]4O)C(C)(C)[C@@H]3CC[C@]12C [ginsenoside Rb1]", "MEASURE_NAME": "Accumulative excretion percentage", "REPORTED": "1.501±0.476%"}
{"COMPOUND": "CC(C)=CCC[C@](C)(O[C@@H]1O[C@H](CO)[C@@H](O)[C@H](O)[C@H]1O)[C@H]1CC[C@]2(C)[C@@H]1[C@H](O)C[C@@H]1[C@@]3(C)CC[C@H](O)C(C)(C)[C@@H]3[C@@H](O[C@@H]3O[C@H](CO)[C@@H](O)[C@H](O)[C@H]3O[C@@H]3O[C@@H](C)[C@H](O)[C@@H](O)[C@H]3O)C[C@]12C [ginsenoside Re]", "MEASURE_NAME": "Accumulative excretion percentage", "REPORTED": "4.364±1.343%"}

###

# TEST_METHOD_NOTES: Fecal excretion study in rats after oral NS, SF or CNS (LC–MS/MS)
# Assay type: in vivo
# MEASUREMENT_PARAMETERS: male, Sprague Dawley; rat feces, oral CNS 110 mg/kg, 4 h

{"MOLECULE": "CC(C)=CCC[C@](C)(O[C@@H]1O[C@H](CO)[C@@H](O)[C@H](O)[C@H]1O)[C@H]1CC[C@]2(C)[C@@H]1[C@H](O)C[C@@H]1[C@@]3(C)CC[C@H](O)C(C)(C)[C@@H]3[C@@H](O[C@@H]3O[C@H](CO)[C@@H](O)[C@H](O)[C@H]3O[C@@H]3O[C@@H](C)[C@H](O)[C@@H](O)[C@H]3O)C[C@]12C [ginsenoside Re]", "concentration at 4 h [ng/mL]": 87}
{"MOLECULE": "CC(C)=CCC[C@](C)(O[C@@H]1O[C@H](CO[C@@H]2O[C@H](CO)[C@@H](O)[C@H](O)[C@H]2O)[C@@H](O)[C@H](O)[C@H]1O)[C@H]1CC[C@]2(C)[C@@H]1[C@H](O)C[C@@H]1[C@@]3(C)CC[C@H](O[C@@H]4O[C@H](CO)[C@@H](O)[C@H](O)[C@H]4O[C@@H]4O[C@H](CO)[C@@H](O)[C@H](O)[C@H]4O)C(C)(C)[C@@H]3CC[C@]12C [ginsenoside Rb1]", "concentration at 4 h [ng/mL]": 555}
{"MOLECULE": "CC(C)=CCC[C@](C)(O[C@@H]1O[C@H](CO)[C@@H](O)[C@H](O)[C@H]1O)[C@H]1CC[C@]2(C)[C@@H]1[C@H](O)C[C@@H]1[C@@]3(C)CC[C@H](O[C@@H]4O[C@H](CO)[C@@H](O)[C@H](O)[C@H]4O[C@@H]4O[C@H](CO)[C@@H](O)[C@H](O)[C@H]4O)C(C)(C)[C@@H]3CC[C@]12C [ginsenoside Rd]", "concentration at 4 h [ng/mL]": 204}
{"MOLECULE": "CC(C)=CCC[C@](C)(O[C@@H]1O[C@H](CO)[C@@H](O)[C@H](O)[C@H]1O)[C@H]1CC[C@]2(C)[C@@H]1[C@H](O)C[C@@H]1[C@@]3(C)CC[C@H](O)C(C)(C)[C@@H]3[C@@H](O[C@@H]3O[C@H](CO)[C@@H](O)[C@H](O)[C@H]3O)C[C@]12C [ginsenoside Rg1]", "concentration at 4 h [ng/mL]": 1100}

###

This section presents molecules with their documented concentration at 36 h values.
# TEST_METHOD_NOTES: Urinary excretion study in rats after oral NS, SF or CNS (LC–MS/MS)
# Assay type: in vivo
# MEASUREMENT_PARAMETERS: male, Sprague Dawley, rat, urine, oral, oral CNS 110 mg/kg, 36 h

{"MOLECULE": "CC(C)=CCC[C@](C)(O[C@@H]1O[C@H](CO[C@@H]2O[C@H](CO)[C@@H](O)[C@H](O)[C@H]2O)[C@@H](O)[C@H](O)[C@H]1O)[C@H]1CC[C@]2(C)[C@@H]1[C@H](O)C[C@@H]1[C@@]3(C)CC[C@H](O[C@@H]4O[C@H](CO)[C@@H](O)[C@H](O)[C@H]4O[C@@H]4O[C@H](CO)[C@@H](O)[C@H](O)[C@H]4O)C(C)(C)[C@@H]3CC[C@]12C [ginsenoside Rb1]", "concentration at 36 h [ng/mL]": 138}
{"MOLECULE": "CC(C)=CCC[C@](C)(O[C@@H]1O[C@H](CO)[C@@H](O)[C@H](O)[C@H]1O)[C@H]1CC[C@]2(C)[C@@H]1[C@H](O)C[C@@H]1[C@@]3(C)CC[C@H](O[C@@H]4O[C@H](CO)[C@@H](O)[C@H](O)[C@H]4O[C@@H]4O[C@H](CO)[C@@H](O)[C@H](O)[C@H]4O)C(C)(C)[C@@H]3CC[C@]12C [ginsenoside Rd]", "concentration at 36 h [ng/mL]": 41}
{"MOLECULE": "CC(C)=CCC[C@](C)(O[C@@H]1O[C@H](CO)[C@@H](O)[C@H](O)[C@H]1O)[C@H]1CC[C@]2(C)[C@@H]1[C@H](O)C[C@@H]1[C@@]3(C)CC[C@H](O)C(C)(C)[C@@H]3[C@@H](O[C@@H]3O[C@H](CO)[C@@H](O)[C@H](O)[C@H]3O)C[C@]12C [ginsenoside Rg1]", "concentration at 36 h [ng/mL]": 228}
{"MOLECULE": "CC(C)=CCC[C@](C)(O[C@@H]1O[C@H](CO)[C@@H](O)[C@H](O)[C@H]1O)[C@H]1CC[C@]2(C)[C@@H]1[C@H](O)C[C@@H]1[C@@]3(C)CC[C@H](O)C(C)(C)[C@@H]3[C@@H](O[C@@H]3O[C@H](CO)[C@@H](O)[C@H](O)[C@H]3O[C@@H]3O[C@@H](C)[C@H](O)[C@@H](O)[C@H]3O)C[C@]12C [ginsenoside Re]", "concentration at 36 h [ng/mL]": 24}

###

# TEST_METHOD_NOTES: Urinary excretion study in rats after oral NS, SF or CNS (LC–MS/MS)
# Type: in vivo
# MEASUREMENT_PARAMETERS: rat urine, oral CNS 110 mg/kg, 4 h
# Accumulative excretion amount listing for each entry below
MEASURE_NAME: Accumulative excretion amount (µg)

{"MOLECULE": "CC(C)=CCC[C@](C)(O[C@@H]1O[C@H](CO)[C@@H](O)[C@H](O)[C@H]1O)[C@H]1CC[C@]2(C)[C@@H]1[C@H](O)C[C@@H]1[C@@]3(C)CC[C@H](O[C@@H]4O[C@H](CO)[C@@H](O)[C@H](O)[C@H]4O[C@@H]4O[C@H](CO)[C@@H](O)[C@H](O)[C@H]4O)C(C)(C)[C@@H]3CC[C@]12C [ginsenoside Rd]", "MEASURE_NAME": "Accumulative excretion amount", "UNIT_ANNOTATION": "µg", "REPORTED": 0.009}
{"MOLECULE": "CC(C)=CCC[C@](C)(O[C@@H]1O[C@H](CO)[C@@H](O)[C@H](O)[C@H]1O)[C@H]1CC[C@]2(C)[C@@H]1[C@H](O)C[C@@H]1[C@@]3(C)CC[C@H](O)C(C)(C)[C@@H]3[C@@H](O[C@@H]3O[C@H](CO)[C@@H](O)[C@H](O)[C@H]3O)C[C@]12C [ginsenoside Rg1]", "MEASURE_NAME": "Accumulative excretion amount", "UNIT_ANNOTATION": "µg", "REPORTED": 3.382}
{"MOLECULE": "CC(C)=CCC[C@](C)(O[C@@H]1O[C@H](CO)[C@@H](O)[C@H](O)[C@H]1O)[C@H]1CC[C@]2(C)[C@@H]1[C@H](O)C[C@@H]1[C@@]3(C)CC[C@H](O)C(C)(C)[C@@H]3[C@@H](O[C@@H]3O[C@H](CO)[C@@H](O)[C@H](O)[C@H]3O[C@@H]3O[C@@H](C)[C@H](O)[C@@H](O)[C@H]3O)C[C@]12C [ginsenoside Re]", "MEASURE_NAME": "Accumulative excretion amount", "UNIT_ANNOTATION": "µg", "REPORTED": 0.193}
{"MOLECULE": "CC(C)=CCC[C@](C)(O[C@@H]1O[C@H](CO[C@@H]2O[C@H](CO)[C@@H](O)[C@H](O)[C@H]2O)[C@@H](O)[C@H](O)[C@H]1O)[C@H]1CC[C@]2(C)[C@@H]1[C@H](O)C[C@@H]1[C@@]3(C)CC[C@H](O[C@@H]4O[C@H](CO)[C@@H](O)[C@H](O)[C@H]4O[C@@H]4O[C@H](CO)[C@@H](O)[C@H](O)[C@H]4O)C(C)(C)[C@@H]3CC[C@]12C [ginsenoside Rb1]", "MEASURE_NAME": "Accumulative excretion amount", "UNIT_ANNOTATION": "µg", "REPORTED": 0.106}
